# Subject of test: T1, recombinant dimeric c-Met (R&D systems, 358-MT/CF) (human, UniProt P08581 25-932)
# T1 construct: Bought product; also called Fc-Met; recombinant c-Met
# Assay remarks: SPR, periplasmic Fab over Fc-Met (around 3000 RU) on CM5 chip
Observed property: koff (s⁻¹)
Record the value in s⁻¹, omitting the unit from your answer.

{"columns": ["Binder", "koff / s⁻¹"],
 "data": [
  ["49G3 VL shuffled Fab (Fab, V domains shown, VL-shuffled Fab with the 36C4Q heavy chain, periplasmic extract) VH: QVQLVESGPGLVKPSQTLSLTCAVSGGSITTNYYYWSWIRQSPGKGLEWMGVIAYDGSTDYSPSLKSRTSISRDTSKNQFSLQLSSVTPEDTAVYYCARDVRVIATGWATANALDAWGQGTQVTVSS VL: QSALTQPPSVSGTLGKTLTISCAGTSTDVGYGNYVSWYQQLPGTAPKLLIFAVSYRASGIPDRFSGSKSGNTAFLTISGLQSEDEADYYCASYRSSNNAAVFGGGTHLTVL", 0.00019],
  ["48B8 VL shuffled Fab (Fab, V domains shown, VL-shuffled Fab with the 38H10 heavy chain, periplasmic extract) VH: EVQLVQPGVELRNPGASVKVSCKASGYIFTMNSIDWVRQAPGQGLEWMGRIDPEDGGTKYAQKFQGRVTFTADTSTSTAYVELNSLRSEDTAVYYCARVDDYYLGYDYWGQGTQVTVSS VL: DVVMTQSPSSVTASVGEKVTINCKSSQSVLYTSNHKNYLAWYQQRLGQSPRLLIYWASTRESGVPDRFSGSGSTTDFTLTISSFQPEDAAVYYCQQGWSFPYSFGSGTRLEIK", 0.00033]
]}

Proceeding to the next binder to report its koff.
Qu. Fill in the blank: the reported koff of 49C4 VL shuffled Fab (Fab, V domains shown, VL-shuffled Fab with the 36C4Q heavy chain, periplasmic extract) VH: QVQLVESGPGLVKPSQTLSLTCAVSGGSITTNYYYWSWIRQSPGKGLEWMGVIAYDGSTDYSPSLKSRTSISRDTSKNQFSLQLSSVTPEDTAVYYCARDVRVIATGWATANALDAWGQGTQVTVSS VL: QSALTQPPSVSGTLGKTVTISCAGTSSDVGYGNYVSWYQKLPGTAPKLLIYAVTYRASGIPDRFSGSKSGNTASLTISGLQSEDEADYYCASYRRSTNVGVFGGGTHLTVL is ____.
Ans. 0.00018
